Entries and their molar extinction coefficient ε values follow.
Assay: Calculation of the molar extinction coefficient (absorption spectrum in ethanol)
Assay type: physicochemical
Conditions: absorbance at 790 nm, 5 μM in ethanol, optical path length 1 cm
Report only the number, with the unit L/mol/cm understood.

Guide cases for molar extinction coefficient ε, answers given:
{"compound": "CCCCCCCCCCCCCCCCCC(=O)OCC(COP(=O)([O-])OCCNC(=O)CC[N+]1=C(/C=C/C=C/C=C/C=C2/N(CCC(=O)NCCOP(=O)(O)OCC(COC(=O)CCCCCCCCCCCCCCCCC)OC(=O)CCCCCCCCCCCCCCCCC)c3ccc4ccccc4c3C2(C)C)C(C)(C)c2c1ccc1ccccc21)OC(=O)CCCCCCCCCCCCCCCCC (centres unmarked)", "molar extinction coefficient ε / L/mol/cm": 199840}
{"compound": "CCCCCCCC/C=C\\CCCCCCCC(=O)OCC(COP(=O)([O-])OCCNC(=O)CC[N+]1=C(/C=C/C=C/C=C/C=C2/N(CCC(=O)NCCOP(=O)(O)OCC(COC(=O)CCCCCCC/C=C\\CCCCCCCC)OC(=O)CCCCCCC/C=C\\CCCCCCCC)c3ccc4ccccc4c3C2(C)C)C(C)(C)c2c1ccc1ccccc21)OC(=O)CCCCCCC/C=C\\CCCCCCCC (centres unmarked)", "molar extinction coefficient ε / L/mol/cm": 161100}

Could you tell me which molar extinction coefficient ε is on file for CC1(C)C(/C=C/C=C/C=C/C=C2/N(CCCCS(=O)(=O)[O-])c3ccc4ccccc4c3C2(C)C)=[N+](CCCCS(=O)(=O)[O-])c2ccc3ccccc3c21.[Na+] [ICG, Indocyanine green, reference compound] ? 208980

Please do the same for CCCCCCCC/C=C\CCCCCCCC(=O)OCC(COP(=O)(O)OCCNC(=O)CCN1/C(=C/C=C/C=C/C=C/C2=[N+](CCCCS(=O)(=O)[O-])c3ccc4ccccc4c3C2(C)C)C(C)(C)c2c1ccc1ccccc21)OC(=O)CCCCCCC/C=C\CCCCCCCC (centres unmarked) [ICG-DOPE, reference compound] as well. 165860

Please do the same for CCCCCCCCCCCCCCCCCCNC(=O)CCN1/C(=C/C=C/C=C/C=C/C2=[N+](CCC(=O)NCCCCCCCCCCCCCCCCCC)c3ccc4ccccc4c3C2(C)C)C(C)(C)c2c1ccc1ccccc21 as well. 177760
